# Measurement target: WIZ (Widely interspaced zinc finger) (Homo sapiens (Human), UniProt O95785+Q96SW2)
# Sequence (O95785 whole entry): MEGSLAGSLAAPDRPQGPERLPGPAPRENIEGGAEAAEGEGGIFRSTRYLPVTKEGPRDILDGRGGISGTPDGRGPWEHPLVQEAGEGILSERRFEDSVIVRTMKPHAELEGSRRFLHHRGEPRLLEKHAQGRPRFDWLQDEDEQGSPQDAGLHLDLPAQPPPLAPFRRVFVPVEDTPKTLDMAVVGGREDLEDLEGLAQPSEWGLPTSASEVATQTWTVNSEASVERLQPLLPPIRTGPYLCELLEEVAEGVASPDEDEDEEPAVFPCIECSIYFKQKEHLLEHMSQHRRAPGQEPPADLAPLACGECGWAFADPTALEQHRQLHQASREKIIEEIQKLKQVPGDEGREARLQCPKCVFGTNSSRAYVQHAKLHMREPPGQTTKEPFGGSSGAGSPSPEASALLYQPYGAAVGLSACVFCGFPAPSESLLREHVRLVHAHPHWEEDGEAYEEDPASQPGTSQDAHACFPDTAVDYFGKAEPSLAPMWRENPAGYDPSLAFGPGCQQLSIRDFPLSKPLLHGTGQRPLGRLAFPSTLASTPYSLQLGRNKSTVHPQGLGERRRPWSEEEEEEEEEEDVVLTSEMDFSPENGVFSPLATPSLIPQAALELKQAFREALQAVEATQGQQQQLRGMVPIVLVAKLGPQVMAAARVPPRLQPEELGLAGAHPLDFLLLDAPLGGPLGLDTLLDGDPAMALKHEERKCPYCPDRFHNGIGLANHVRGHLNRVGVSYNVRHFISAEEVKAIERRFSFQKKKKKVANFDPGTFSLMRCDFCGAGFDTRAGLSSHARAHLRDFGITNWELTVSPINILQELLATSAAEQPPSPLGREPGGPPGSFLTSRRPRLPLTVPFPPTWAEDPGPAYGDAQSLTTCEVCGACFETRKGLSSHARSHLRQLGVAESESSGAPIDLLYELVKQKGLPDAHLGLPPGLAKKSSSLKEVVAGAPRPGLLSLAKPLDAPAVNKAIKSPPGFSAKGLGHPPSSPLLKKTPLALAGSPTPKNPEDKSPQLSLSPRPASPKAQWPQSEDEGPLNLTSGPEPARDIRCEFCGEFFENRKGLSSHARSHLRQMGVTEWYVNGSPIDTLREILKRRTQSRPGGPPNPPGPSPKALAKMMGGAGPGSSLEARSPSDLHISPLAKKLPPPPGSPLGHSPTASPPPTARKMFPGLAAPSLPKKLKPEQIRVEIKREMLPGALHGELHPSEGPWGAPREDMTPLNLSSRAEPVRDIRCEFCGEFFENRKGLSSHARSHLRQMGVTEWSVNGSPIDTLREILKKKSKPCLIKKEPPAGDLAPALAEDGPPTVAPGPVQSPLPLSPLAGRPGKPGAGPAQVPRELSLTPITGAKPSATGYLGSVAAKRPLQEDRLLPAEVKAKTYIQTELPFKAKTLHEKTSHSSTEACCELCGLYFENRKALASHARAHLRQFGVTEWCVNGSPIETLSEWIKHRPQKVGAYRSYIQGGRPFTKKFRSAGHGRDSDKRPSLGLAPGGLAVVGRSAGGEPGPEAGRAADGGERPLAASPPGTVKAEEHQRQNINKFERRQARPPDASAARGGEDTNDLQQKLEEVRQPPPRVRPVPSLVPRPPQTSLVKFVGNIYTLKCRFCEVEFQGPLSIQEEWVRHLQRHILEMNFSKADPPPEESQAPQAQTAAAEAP
# Sequence (Q96SW2 whole entry): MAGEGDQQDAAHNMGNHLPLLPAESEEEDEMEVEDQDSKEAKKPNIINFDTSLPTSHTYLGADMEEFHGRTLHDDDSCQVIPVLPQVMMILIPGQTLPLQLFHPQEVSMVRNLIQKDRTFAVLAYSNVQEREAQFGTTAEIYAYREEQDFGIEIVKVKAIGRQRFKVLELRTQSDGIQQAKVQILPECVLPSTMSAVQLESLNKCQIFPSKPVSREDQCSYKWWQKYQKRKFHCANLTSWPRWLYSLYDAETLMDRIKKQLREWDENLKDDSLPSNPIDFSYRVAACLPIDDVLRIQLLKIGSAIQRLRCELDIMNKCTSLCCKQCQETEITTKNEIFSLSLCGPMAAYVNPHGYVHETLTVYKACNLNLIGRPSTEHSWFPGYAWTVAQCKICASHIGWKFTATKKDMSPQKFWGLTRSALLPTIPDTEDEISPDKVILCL
# Sequence (Q16531 whole entry partner): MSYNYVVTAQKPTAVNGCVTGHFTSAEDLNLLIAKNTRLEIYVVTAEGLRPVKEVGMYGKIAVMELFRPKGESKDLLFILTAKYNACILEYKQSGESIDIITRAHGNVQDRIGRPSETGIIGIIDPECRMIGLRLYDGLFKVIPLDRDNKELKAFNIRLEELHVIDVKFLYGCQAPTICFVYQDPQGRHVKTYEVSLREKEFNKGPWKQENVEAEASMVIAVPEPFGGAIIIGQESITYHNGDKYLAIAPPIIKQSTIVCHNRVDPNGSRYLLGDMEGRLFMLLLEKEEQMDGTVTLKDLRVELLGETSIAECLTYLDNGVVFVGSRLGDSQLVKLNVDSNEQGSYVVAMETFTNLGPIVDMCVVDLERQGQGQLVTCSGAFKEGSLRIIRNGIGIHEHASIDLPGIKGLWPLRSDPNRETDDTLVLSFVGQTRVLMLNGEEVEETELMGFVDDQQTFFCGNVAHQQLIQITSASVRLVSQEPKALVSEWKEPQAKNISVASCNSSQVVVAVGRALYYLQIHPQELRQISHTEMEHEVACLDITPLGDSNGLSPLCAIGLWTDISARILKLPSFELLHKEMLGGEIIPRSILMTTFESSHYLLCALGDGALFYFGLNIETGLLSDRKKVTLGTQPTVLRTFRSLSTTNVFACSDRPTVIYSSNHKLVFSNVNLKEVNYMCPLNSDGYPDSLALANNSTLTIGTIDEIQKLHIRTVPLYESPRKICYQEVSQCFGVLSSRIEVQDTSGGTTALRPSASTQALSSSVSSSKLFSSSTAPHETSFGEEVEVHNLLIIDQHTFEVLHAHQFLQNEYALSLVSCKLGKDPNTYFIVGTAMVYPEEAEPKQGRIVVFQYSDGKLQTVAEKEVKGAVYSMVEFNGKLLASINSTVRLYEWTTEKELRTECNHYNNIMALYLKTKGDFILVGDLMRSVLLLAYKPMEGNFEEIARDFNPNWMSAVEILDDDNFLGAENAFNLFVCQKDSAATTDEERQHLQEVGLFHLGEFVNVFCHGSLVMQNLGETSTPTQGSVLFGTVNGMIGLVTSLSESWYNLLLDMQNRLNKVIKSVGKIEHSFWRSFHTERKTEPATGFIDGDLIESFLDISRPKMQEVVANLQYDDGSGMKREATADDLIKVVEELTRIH
# Assay procedure: HUDEP-2 WIZ HiBiT degradation assay
# Type: cell-based
# Run parameters: HUDEP-2 WIZ HiBiT cells, 24 hours treatment, luminescence; read-out: WIZ EC50
Task for the reader: assign each of the following compounds its reported DC50.

Please review the entries below; each comes with its answer.
Compound	DC50
Cn1ncc2cc(Nc3cccc4c3C(=O)N(C3CCC(=O)NC3=O)C4=O)c(-c3cccc(C(F)(F)F)c3)cc21 (stereo not shown) [Compound 28]	> 100 nM
CN1C(=O)CCc2cc(-c3cnn(C)c3)c(Nc3cccc4c3C(=O)N(C3CCC(=O)NC3=O)C4=O)cc21 (stereo not shown) [Compound 36]	10 to 100 nM
COc1ccc(-c2cc3c(cnn3C)cc2Nc2cccc3c2C(=O)N(C2CCC(=O)NC2=O)C3=O)cc1F (stereo not shown) [Compound 14]	> 100 nM

# map each compound to its DC50
1. Cc1cc(-c2cc3c(cc2Nc2cccc4c2C(=O)N(C2CCC(=O)NC2=O)C4=O)nc(C)n3C)ccn1 (stereo not shown) [Compound 23]
2. COc1cc(-c2ccccc2)c(Nc2cccc3c2C(=O)N(C2CCC(=O)NC2=O)C3=O)cn1 (stereo not shown) [Compound 30]
3. Cc1cc(-c2cc3c(cnn3C)cc2Nc2cccc3c2C(=O)N(C2CCC(=O)NC2=O)C3=O)ccn1 (stereo not shown) [Compound 19]
4. Cc1nccc(-c2cc3c(cnn3C)cc2Nc2cccc3c2C(=O)N(C2CCC(=O)NC2=O)C3=O)c1C (stereo not shown) [Compound 29]

Out:
["> 100 nM", "10 to 100 nM", "> 100 nM", "10 to 100 nM"]

Cited source: patent US20240208937A1
